Biological target: T1, mouse calmodulin (mouse, UniProt P0DP26 1-149)
T1 construct: also called mCaM; CaM; source: E. coli BL21 (DE3) pLysS, purified (Phenyl Sepharose)
Experiment: SPR; Biacore 2000; biotinylated T1r peptides on a CAP chip (Biotin CAPture Kit); mCaM injected, 2-fold dilutions from 50 μM, +Ca2+ (1 mM CaCl2), 25°C, 30 μl/min; KD from equilibrium responses, 1:1 model
Conditions: both partners purified
pKd: −log10 of the molar value. No end group written: not given here. *: point of attachment. Biotin = O=C1N[C@H]2[C@H](CS[C@H]2CCCCC(=O)*)N1

- BINDER: "Biotin-GGSGGSPKCYMILFYPERNTSAYFNSMIQGYTMRKS (N-terminal linker segment; mouse T1r2, cytosolic C-terminal region as defined by TMHMM, residues 814-843; source: synthetic peptide (Hokkaido System Science, ~90% purity)) [biotin-mT1r2 CT peptide (cytosolic C-terminal region of mouse taste receptor type 1 subunit 2)]"
  pKd: 4.57
